pKi for assorted compounds
- Experimental system: receptor 5.24 (Carassius auratus, UniProt Q9PW88)
- Construct: The receptor 5.24 full length cDNA detects 1-2 bands in genomic DNA blots; expressed in transfected cells; host or cells: HEK 293 cells expressing SV40 large T antigen (293-TSA)
- Sequence (Q9PW88 25-877): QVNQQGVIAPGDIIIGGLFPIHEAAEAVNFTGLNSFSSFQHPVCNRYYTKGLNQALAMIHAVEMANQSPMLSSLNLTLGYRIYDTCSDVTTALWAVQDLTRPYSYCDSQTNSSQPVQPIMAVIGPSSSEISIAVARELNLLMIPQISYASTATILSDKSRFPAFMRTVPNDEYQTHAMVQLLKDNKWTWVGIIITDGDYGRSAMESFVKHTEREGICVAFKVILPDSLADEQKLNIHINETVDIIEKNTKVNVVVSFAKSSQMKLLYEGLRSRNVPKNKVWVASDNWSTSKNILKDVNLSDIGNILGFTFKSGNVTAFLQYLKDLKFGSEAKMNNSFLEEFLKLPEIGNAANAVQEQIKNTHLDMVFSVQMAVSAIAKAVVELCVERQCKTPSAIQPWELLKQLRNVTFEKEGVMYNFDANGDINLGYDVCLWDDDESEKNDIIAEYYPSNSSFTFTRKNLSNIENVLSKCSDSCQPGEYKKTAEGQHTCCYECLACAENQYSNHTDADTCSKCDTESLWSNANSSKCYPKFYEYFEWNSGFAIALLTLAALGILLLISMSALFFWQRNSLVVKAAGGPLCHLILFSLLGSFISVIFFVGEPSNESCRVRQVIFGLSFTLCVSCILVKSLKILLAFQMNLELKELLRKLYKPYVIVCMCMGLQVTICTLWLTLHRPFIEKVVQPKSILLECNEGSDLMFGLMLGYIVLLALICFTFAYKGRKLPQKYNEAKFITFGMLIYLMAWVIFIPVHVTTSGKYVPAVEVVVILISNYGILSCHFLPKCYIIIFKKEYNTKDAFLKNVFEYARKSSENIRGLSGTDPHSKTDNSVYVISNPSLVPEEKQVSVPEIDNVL
- Method notes: biochemical
- Format: binding
- Condition description: read-out: Ki (binding affinity); displacement of 3H-L-arginine from membranes of HEK 293 cells expressing receptor 5.24
pKi: −log10 of the molar value.

- NCCCC(=O)O: < 3.00

Okay, now this compound:
**Q:** Name the reported pKi value associated with the compound N=C(N)NCCCCN
**A:** < 3.00
